B1: library; a variant is named by its letters at N, in order (parent)
chain: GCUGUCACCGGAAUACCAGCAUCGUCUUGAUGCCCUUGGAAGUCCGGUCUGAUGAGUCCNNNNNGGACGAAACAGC

Variants of: B1
Assay: normalized RNA/DNA level with ligand (relative to sTRSVctl = 100) (log10 (% of sTRSVctl)); higher = less ribozyme self-cleavage, higher mRNA level
Settings: ligand concentration (+) RNA-Seq: 5 mM, HEK293T, reporter: mCherry (pCS4076), ligand present: yes
OBSERVED_PROPERTY: normalized RNA/DNA level with ligand (log10)
Please respond with just the number, no unit label.

The examples below pair each entry with its known result.
# RESIDUES, NUMERIC_RESULT
records = [
    ("GCUGUCACCGGAAUACCAGCAUCGUCUUGAUGCCCUUGGAAGUCCGGUCUGAUGAGUCCGCAAGGGACGAAACAGC [GCAAG]", 1.97),
    ("GCUGUCACCGGAAUACCAGCAUCGUCUUGAUGCCCUUGGAAGUCCGGUCUGAUGAGUCCUGUACGGACGAAACAGC [UGUAC]", 1.98),
    ("GCUGUCACCGGAAUACCAGCAUCGUCUUGAUGCCCUUGGAAGUCCGGUCUGAUGAGUCCUUCCGGGACGAAACAGC [UUCCG]", 2.02),
    ("GCUGUCACCGGAAUACCAGCAUCGUCUUGAUGCCCUUGGAAGUCCGGUCUGAUGAGUCCACCUCGGACGAAACAGC [ACCUC]", 2.04),
    ("GCUGUCACCGGAAUACCAGCAUCGUCUUGAUGCCCUUGGAAGUCCGGUCUGAUGAGUCCUGGUAGGACGAAACAGC [UGGUA]", 1.95),
]

input: Retrieve normalized RNA/DNA level with ligand (log10) measured for GCUGUCACCGGAAUACCAGCAUCGUCUUGAUGCCCUUGGAAGUCCGGUCUGAUGAGUCCAACUGGGACGAAACAGC [AACUG] and print it.
output: 2

input: Retrieve normalized RNA/DNA level with ligand (log10) measured for GCUGUCACCGGAAUACCAGCAUCGUCUUGAUGCCCUUGGAAGUCCGGUCUGAUGAGUCCCGCAUGGACGAAACAGC [CGCAU] and print it.
output: 1.99

input: Retrieve normalized RNA/DNA level with ligand (log10) measured for GCUGUCACCGGAAUACCAGCAUCGUCUUGAUGCCCUUGGAAGUCCGGUCUGAUGAGUCCCUCCCGGACGAAACAGC [CUCCC] and print it.
output: 2.05
